The origin of these recorded values is patent US20190055280A1.

- methodNotes: Stability evaluation of peptide P1 cysteine conjugates in the presence of base, acid or an external thiol nucleophile (LC-MS)
- Assay type: physicochemical
- reportedConditions: 0.1 M aqueous HCl; 1 mM peptide, 0.1 M HCl; 2 d at rt, then 4 d at 37° C.; read-out: % remaining peptide, acid
Peptide text beside a SMILES is read from it. * marks the point of attachment. Bn = c1ccc(C*)cc1; X1 = Cc1ccc(*)cc1; Cam = NC(=O)C*
Measured remaining at 144 h, 1 mM, listed per entry for reference.
Answer with a number only, understood to be in %.

compound	remaining at 144 h, 1 mM (%)
Cc1ccc(SC[C@H](NC(=O)CNC(=O)[C@H](CC(C)C)NC(=O)[C@H](Cc2ccc(O)cc2)NC(=O)[C@H](Cc2ccccc2)NC(=O)[C@H](CC(N)=O)NC(=O)[C@H](CO)NC(=O)[C@@H](N)CCCNC(=N)N)C(=O)N[C@@H](C)C(=O)NCC(=O)N[C@@H](CC(C)C)C(=O)N[C@@H](C)C(=O)N[C@@H](Cc2c[nH]cn2)C(=O)N[C@@H](CC(=O)O)C(=O)N[C@@H](CCCCN)C(=O)N[C@@H](C)C(=O)N[C@H](C(N)=O)[C@@H](C)O)cc1 (H-RSNFYLGC(X1)AGLAHDKAT-NH2)	83
CC(C)C[C@H](NC(=O)CNC(=O)[C@H](C)NC(=O)[C@H](CSCC(N)=O)NC(=O)CNC(=O)[C@H](CC(C)C)NC(=O)[C@H](Cc1ccc(O)cc1)NC(=O)[C@H](Cc1ccccc1)NC(=O)[C@H](CC(N)=O)NC(=O)[C@H](CO)NC(=O)[C@@H](N)CCCNC(=N)N)C(=O)N[C@@H](C)C(=O)N[C@@H](Cc1c[nH]cn1)C(=O)N[C@@H](CC(=O)O)C(=O)N[C@@H](CCCCN)C(=O)N[C@@H](C)C(=O)N[C@H](C(N)=O)[C@@H](C)O (H-RSNFYLGC(Cam)AGLAHDKAT-NH2)	63

Please look at the following compound next.
q: Can you share its remaining at 144 h, 1 mM? I mean this compound: CC(C)C[C@H](NC(=O)CNC(=O)[C@H](C)NC(=O)[C@H](CSCc1ccccc1)NC(=O)CNC(=O)[C@H](CC(C)C)NC(=O)[C@H](Cc1ccc(O)cc1)NC(=O)[C@H](Cc1ccccc1)NC(=O)[C@H](CC(N)=O)NC(=O)[C@H](CO)NC(=O)[C@@H](N)CCCNC(=N)N)C(=O)N[C@@H](C)C(=O)N[C@@H](Cc1c[nH]cn1)C(=O)N[C@@H](CC(=O)O)C(=O)N[C@@H](CCCCN)C(=O)N[C@@H](C)C(=O)N[C@H](C(N)=O)[C@@H](C)O (H-RSNFYLGC(Bn)AGLAHDKAT-NH2)
a: 85

###

- methodNotes: Stability evaluation of peptide P1 cysteine conjugates in the presence of base, acid or an external thiol nucleophile (LC-MS)
- Assay type: physicochemical
- reportedConditions: 0.1 M aqueous HCl; 1 mM peptide, 0.1 M HCl; 2 d at rt, then 4 d at 37° C.; read-out: % remaining peptide, acid
Peptide text beside a SMILES is read from it. * marks the point of attachment. Succinimide(1-Et,3-yl) = CCN1C(=O)CC(*)C1=O
valueType: remaining at 144 h, 1 mM (%)
Form entry: value (%) — number only.

q: // query remaining at 144 h, 1 mM value for entry CCN1C(=O)CC(SC[C@H](NC(=O)CNC(=O)[C@H](CC(C)C)NC(=O)[C@H](Cc2ccc(O)cc2)NC(=O)[C@H](Cc2ccccc2)NC(=O)[C@H](CC(N)=O)NC(=O)[C@H](CO)NC(=O)[C@@H](N)CCCNC(=N)N)C(=O)N[C@@H](C)C(=O)NCC(=O)N[C@@H](CC(C)C)C(=O)N[C@@H](C)C(=O)N[C@@H](Cc2c[nH]cn2)C(=O)N[C@@H](CC(=O)O)C(=O)N[C@@H](CCCCN)C(=O)N[C@@H](C)C(=O)N[C@H](C(N)=O)[C@@H](C)O)C1=O (stereo partly shown) (H-RSNFYLGC(Succinimide(1-Et,3-yl))AGLAHDKAT-NH2)
a: 84

###

In this section, each of the molecules is paired with its reported remaining at 144 h, 1 mM.
- methodNotes: Stability evaluation of peptide P1 cysteine conjugates in the presence of base, acid or an external thiol nucleophile (LC-MS)
- Assay type: physicochemical
- reportedConditions: 5 mM aqueous K2CO3; 1 mM peptide, 5 mM K2CO3; 2 d at rt, then 4 d at 37° C.; read-out: % remaining peptide, base
- Description: All reported yields were determined by integrating TIC spectra. First, the peak areas for all relevant peptide-containing species on the chromatogram were integrated using Agilent MassHunter software package. Since no peptide-based side products were generated in the experiments, the yields shown in Table 2 were determined as follows: % yield=Spr/Stotal where Spr is the peak area of the product and Stotal is the peak area of combined peptide-containing species (product and starting material). […]
Peptide text beside a SMILES is read from it. * marks the point of attachment. Succinimide(1-Et,3-yl) = CCN1C(=O)CC(*)C1=O; Bn = c1ccc(C*)cc1; Cam = NC(=O)C*
Note: unit % is implicit; provide only the numeric part.

q: Quick one: remaining at 144 h, 1 mM for CC(C)C[C@H](NC(=O)CNC(=O)[C@H](C)NC(=O)[C@H](CSCc1ccccc1)NC(=O)CNC(=O)[C@H](CC(C)C)NC(=O)[C@H](Cc1ccc(O)cc1)NC(=O)[C@H](Cc1ccccc1)NC(=O)[C@H](CC(N)=O)NC(=O)[C@H](CO)NC(=O)[C@@H](N)CCCNC(=N)N)C(=O)N[C@@H](C)C(=O)N[C@@H](Cc1c[nH]cn1)C(=O)N[C@@H](CC(=O)O)C(=O)N[C@@H](CCCCN)C(=O)N[C@@H](C)C(=O)N[C@H](C(N)=O)[C@@H](C)O (H-RSNFYLGC(Bn)AGLAHDKAT-NH2) ?
a: 84

q: Now this one: CC(C)C[C@H](NC(=O)CNC(=O)[C@H](C)NC(=O)[C@H](CSCC(N)=O)NC(=O)CNC(=O)[C@H](CC(C)C)NC(=O)[C@H](Cc1ccc(O)cc1)NC(=O)[C@H](Cc1ccccc1)NC(=O)[C@H](CC(N)=O)NC(=O)[C@H](CO)NC(=O)[C@@H](N)CCCNC(=N)N)C(=O)N[C@@H](C)C(=O)N[C@@H](Cc1c[nH]cn1)C(=O)N[C@@H](CC(=O)O)C(=O)N[C@@H](CCCCN)C(=O)N[C@@H](C)C(=O)N[C@H](C(N)=O)[C@@H](C)O (H-RSNFYLGC(Cam)AGLAHDKAT-NH2)
a: 66

q: Now this one: CCN1C(=O)CC(SC[C@H](NC(=O)CNC(=O)[C@H](CC(C)C)NC(=O)[C@H](Cc2ccc(O)cc2)NC(=O)[C@H](Cc2ccccc2)NC(=O)[C@H](CC(N)=O)NC(=O)[C@H](CO)NC(=O)[C@@H](N)CCCNC(=N)N)C(=O)N[C@@H](C)C(=O)NCC(=O)N[C@@H](CC(C)C)C(=O)N[C@@H](C)C(=O)N[C@@H](Cc2c[nH]cn2)C(=O)N[C@@H](CC(=O)O)C(=O)N[C@@H](CCCCN)C(=O)N[C@@H](C)C(=O)N[C@H](C(N)=O)[C@@H](C)O)C1=O (stereo partly drawn) (H-RSNFYLGC(Succinimide(1-Et,3-yl))AGLAHDKAT-NH2)
a: 0

###

- methodNotes: Stability evaluation of peptide P1 cysteine conjugates in the presence of base, acid or an external thiol nucleophile (LC-MS)
- Assay type: physicochemical
- reportedConditions: 0.1 M Tris buffer with 5 mM glutathione; 1 mM peptide, 5 mM GSH, 0.1M Tris, pH 7.4; 2 d at rt, then 4 d at 37° C.; read-out: % remaining peptide, GSH
- Description: All reported yields were determined by integrating TIC spectra. First, the peak areas for all relevant peptide-containing species on the chromatogram were integrated using Agilent MassHunter software package. Since no peptide-based side products were generated in the experiments, the yields shown in Table 2 were determined as follows: % yield=Spr/Stotal where Spr is the peak area of the product and Stotal is the peak area of combined peptide-containing species (product and starting material). […]
Peptide text beside a SMILES is read from it. * marks the point of attachment. Cam = NC(=O)C*
valueType: remaining at 144 h, 1 mM (%)
Give just the number in %; leave the unit off.

q: What remaining at 144 h, 1 mM value was documented for this compound, CC(C)C[C@H](NC(=O)CNC(=O)[C@H](C)NC(=O)[C@H](CSCC(N)=O)NC(=O)CNC(=O)[C@H](CC(C)C)NC(=O)[C@H](Cc1ccc(O)cc1)NC(=O)[C@H](Cc1ccccc1)NC(=O)[C@H](CC(N)=O)NC(=O)[C@H](CO)NC(=O)[C@@H](N)CCCNC(=N)N)C(=O)N[C@@H](C)C(=O)N[C@@H](Cc1c[nH]cn1)C(=O)N[C@@H](CC(=O)O)C(=O)N[C@@H](CCCCN)C(=O)N[C@@H](C)C(=O)N[C@H](C(N)=O)[C@@H](C)O (H-RSNFYLGC(Cam)AGLAHDKAT-NH2) ?
a: 85
